Target: T1, MERS-CoV spike protein on live MERS-CoV (EMC, KNIH-002, KNIH-016 and KNIH-042 strains) (MERS-CoV)
T1 chain: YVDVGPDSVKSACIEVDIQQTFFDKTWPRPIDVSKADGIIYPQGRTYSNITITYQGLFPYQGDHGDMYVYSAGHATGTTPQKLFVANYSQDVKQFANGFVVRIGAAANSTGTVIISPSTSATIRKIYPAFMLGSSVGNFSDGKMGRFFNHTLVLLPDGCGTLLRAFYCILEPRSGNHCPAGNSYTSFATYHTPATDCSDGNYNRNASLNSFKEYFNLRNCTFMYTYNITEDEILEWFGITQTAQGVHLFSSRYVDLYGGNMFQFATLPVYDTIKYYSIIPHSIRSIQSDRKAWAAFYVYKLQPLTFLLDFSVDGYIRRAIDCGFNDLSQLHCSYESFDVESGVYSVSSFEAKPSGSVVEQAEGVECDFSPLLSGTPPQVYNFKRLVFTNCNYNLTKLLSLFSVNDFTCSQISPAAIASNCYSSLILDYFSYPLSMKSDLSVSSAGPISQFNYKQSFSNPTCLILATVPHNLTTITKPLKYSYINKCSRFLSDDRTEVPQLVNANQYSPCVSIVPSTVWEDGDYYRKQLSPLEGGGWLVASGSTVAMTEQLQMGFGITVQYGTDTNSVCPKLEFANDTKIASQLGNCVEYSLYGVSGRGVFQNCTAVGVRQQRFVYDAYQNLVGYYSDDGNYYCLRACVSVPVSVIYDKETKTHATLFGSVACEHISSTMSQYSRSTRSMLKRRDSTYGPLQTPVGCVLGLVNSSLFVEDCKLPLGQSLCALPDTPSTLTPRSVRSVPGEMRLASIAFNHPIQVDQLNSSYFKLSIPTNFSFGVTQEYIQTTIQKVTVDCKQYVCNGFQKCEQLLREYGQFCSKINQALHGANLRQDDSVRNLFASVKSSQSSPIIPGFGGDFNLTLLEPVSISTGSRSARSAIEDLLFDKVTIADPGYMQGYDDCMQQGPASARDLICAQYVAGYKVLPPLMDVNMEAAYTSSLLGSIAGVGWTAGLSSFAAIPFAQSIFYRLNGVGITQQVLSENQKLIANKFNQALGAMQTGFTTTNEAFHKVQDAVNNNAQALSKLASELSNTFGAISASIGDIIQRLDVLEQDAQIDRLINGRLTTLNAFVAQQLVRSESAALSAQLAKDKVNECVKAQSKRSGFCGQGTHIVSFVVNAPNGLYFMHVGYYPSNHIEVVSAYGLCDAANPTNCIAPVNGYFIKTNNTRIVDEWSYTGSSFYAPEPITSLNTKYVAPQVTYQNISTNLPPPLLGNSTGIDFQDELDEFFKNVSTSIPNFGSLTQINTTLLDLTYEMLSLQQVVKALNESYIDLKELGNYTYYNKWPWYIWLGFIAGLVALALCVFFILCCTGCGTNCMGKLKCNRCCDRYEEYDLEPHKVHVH
Assay: cell-based or functional assay
Readout type: ND50 antibody conc. (PRNT with MERS-CoV)
Remember to quote the unit after the number.

90-A3 antibody (antibody, V domains shown) VH: QVQLVQSGAEVKKPGASVKVSCMTSGYTFTSYGISWVRQAPGQGLEWMGWISAYNGNTNYAQKLQGRVTMTTDTSTSTAYMELRSLRSDDTAVYYCARDRGAYWDCGGDCYLSAFDYWGQGTLVTVSS VL: QAVVTQPPSVSAAPGQKVTISCSGSSSNIGNNYVSWYQQLPGTAPKLLIYDNNKRPSGIPDRFSGSKSGTSATLGITGLQTGDEADYYCGTWDSSLSAVVFGGGTKLTVLG: 15.8 µg/mL

Look up ND50 antibody conc. (PRNT with MERS-CoV) for this binder: 90-A9 antibody (antibody, V domains shown) VH: QVQLVQSGAEVKKPGSSVKVSCKASGGTFSSFPISWVRQAPGQGLEWMGGIIPIFGAANYAQKFQGRVTITADESTSTAYMELSSLRSEDTAVYYCARNYEEIVVIPAIMNFGYWGQGTLVTVSS VL: EIVLTQSPGTLSLSPGERATLSCRASQSVASSYLAWYQQKPGQAPRLLIYGTSSRATGIPDRFSGSGSGADFTLTISRLEPEDFAVYYCQQYGTSPLTFGGGTKVEIK 17.3 µg/mL
